Value source: patent US10457707B2

test system: Streptococcus pyogenes, ATCC 700294; test: Minimal inhibitory concentration assay (microbroth dilution); type: cell-based; settings: Streptococcus pyogenes, ATCC700294, read-out: Minimal Inhibitory Concentrations S. pyogenes ATCC 700294
*1 amine or outer side, *2 acyl side, *3 side chain or, on linkers, in order; H or OH if unused. Where a SMILES comes first, the peptide text is derived from it. Bridges are numbered along the chain shown (N, C = ends). [ ]: non-standard residue; d: D form. The star is where a group is joined. Phe(3,5-F2) = N[C@@H](Cc1cc(F)cc(F)c1)C(=O)O; Pro(4R-Me) = C[C@H]1CN[C@H](C(=O)O)C1; NMeaThr = CN[C@H](C(=O)O)[C@H](C)O; NH(4-Me-phenyl) = Cc1ccc(N*)cc1; aThr = C[C@H](O)[C@H](N)C(=O)O; Pip = O=C(O)[C@@H]1CCCCN1; CO = O=C([*:1])[*:2]
Reported MIC values for a set of compounds
Respond numerically; units are µM and should not be typed.

{"Compound": "C[C@@H]1C[C@H]2C(=O)OC[C@H](NC(=O)[C@H](Cc3ccccc3)NC(=O)Nc3ccc(N(C)C)cc3)C(=O)N3CCC[C@H]3C(=O)N3CCCC[C@H]3C(=O)N[C@@H](C)C(=O)N2C1", "Outcome Measure": "MIC", "Quantitative Result": 0.78}

Summary: Cc1ccc(NC(=O)N[C@@H](Cc2cc(F)cc(F)c2)C(=O)N[C@@H]2C(=O)N3CCC[C@H]3C(=O)N3CCCC[C@H]3C(=O)N[C@@H](C)C(=O)N3C[C@H](C)C[C@H]3C(=O)O[C@H]2C)cc1 [Compound 209] ({NH(4-Me-phenyl)-CO}-[Phe(3,5-F2)][aThr]P[Pip]A[Pro(4R-Me)]; ester 2-C) , Streptococcus pyogenes, ATCC 700294, MIC = 0.2

Summary: Cc1ccc(NC(=O)N[C@@H](Cc2cc(F)cc(F)c2)C(=O)N[C@H]2COC(=O)C3C[C@H](C)CN3C(=O)[C@H](C)NC(=O)C3CCCCN3C(=O)C3CCCN3C2=O)cc1C (stereo partly shown) , Streptococcus pyogenes, ATCC 700294, MIC = 3.1

Summary: Cc1ccc(NC(=O)N[C@@H](Cc2cc(F)cc(F)c2)C(=O)N[C@@H]2C(=O)N3CCC[C@H]3C(=O)N(C)[C@@H]([C@H](C)O)C(=O)N[C@@H](C)C(=O)N3C[C@H](C)C[C@H]3C(=O)O[C@H]2C)cc1 [Compound 208] ({NH(4-Me-phenyl)-CO}-[Phe(3,5-F2)][aThr]P[NMeaThr]A[Pro(4R-Me)]; ester 2-C) , Streptococcus pyogenes, ATCC 700294, MIC = 0.1
